Assay: Clearance in cancer patient at 20 mg for 60 mins treated 1/1 cycle/day
Format: ADME, organism-based
Design: dosed compound name LY2090314
Conditions: human, in vivo

| substance.smiles | clearance |
| --- | --- |
| O=C1NC(=O)C(c2cnc3ccccn23)=C1c1cn2c3c(cc(F)cc13)CN(C(=O)N1CCCCC1)CC2 | 782 mL/min |

----------
Assay: Half life in cancer patient at 40 mg for 60 mins treated 1/8 cycle/day
Assay type: ADME, organism-based
Set-up: dosed compound name LY2090314
Details: human, in vivo
measure.name: half-life

| substance.smiles | observed.measurement |
| --- | --- |
| O=C1NC(=O)C(c2cnc3ccccn23)=C1c1cn2c3c(cc(F)cc13)CN(C(=O)N1CCCCC1)CC2 | 2.68 h |
